The values you see were collected from patent US20240165282A1.

# Measured On: human cloned somatostatin receptor 2 (human) (UniProt P30874)
# Sequence (P30874 whole entry): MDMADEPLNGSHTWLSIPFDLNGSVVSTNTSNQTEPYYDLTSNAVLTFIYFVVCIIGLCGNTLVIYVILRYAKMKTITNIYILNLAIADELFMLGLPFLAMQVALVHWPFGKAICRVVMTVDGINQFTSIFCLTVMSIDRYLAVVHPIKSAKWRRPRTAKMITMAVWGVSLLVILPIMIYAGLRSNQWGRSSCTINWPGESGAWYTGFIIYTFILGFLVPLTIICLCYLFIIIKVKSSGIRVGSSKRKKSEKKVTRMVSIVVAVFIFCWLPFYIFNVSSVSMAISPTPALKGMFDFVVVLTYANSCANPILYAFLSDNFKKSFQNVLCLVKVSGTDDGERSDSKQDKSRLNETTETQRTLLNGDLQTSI
# Assay Overview: 125I-Tyr11-SRIF-14 displacement
*1 amine or outer side, *2 acyl side, *3 side chain or, on linkers, in order; H or OH if unused. Bridges are numbered along the chain shown (N, C = ends). [ ]: non-standard residue; d: D form. The star is where a group is joined. DOTA = O=C(O)CN1CCN(CC(=O)O)CCN(CC(=O)*)CCN(CC(=O)O)CC1; N(2-mercaptoethyl)Gly = O=C(CN(CCS[*:3])[*:1])[*:2]; Orn = NCCC[C@H](N)C(=O)O; Aoc = NCCCCCCCC(=O)O; CPT = camptothecin
Property: % displacement at 1 nM (%)
Give the quantity in %, number only.

Query: Could you tell me which % displacement at 1 nM is on file for {DOTA}-[dF]E[Orn]CF[dW]KTF[N(2-mercaptoethyl)Gly]-NH2 (disulfide 4-10; SMILES C[C@@H](O)[C@@H]1NC(=O)[C@H](CCCCN)NC(=O)[C@@H](Cc2c[nH]c3ccccc23)NC(=O)[C@H](Cc2ccccc2)NC(=O)[C@@H](NC(=O)[C@H](CCCN)NC(=O)[C@H](CCC(=O)O)NC(=O)[C@@H](Cc2ccccc2)NC(=O)CN2CCN(CC(=O)O)CCN(CC(=O)O)CCN(CC(=O)O)CC2)CSSCCN(CC(N)=O)C(=O)[C@H](Cc2ccccc2)NC1=O) [SEQ ID NO: 23] ?
Result: 0

Query: Could you tell me which % displacement at 1 nM is on file for {DOTA}-[dF]EE[Orn]CF[dW]KTF[N(2-mercaptoethyl)Gly]-NH2 (disulfide 5-11; SMILES C[C@@H](O)[C@@H]1NC(=O)[C@H](CCCCN)NC(=O)[C@@H](Cc2c[nH]c3ccccc23)NC(=O)[C@H](Cc2ccccc2)NC(=O)[C@@H](NC(=O)[C@H](CCCN)NC(=O)[C@H](CCC(=O)O)NC(=O)[C@H](CCC(=O)O)NC(=O)[C@@H](Cc2ccccc2)NC(=O)CN2CCN(CC(=O)O)CCN(CC(=O)O)CCN(CC(=O)O)CC2)CSSCCN(CC(N)=O)C(=O)[C@H](Cc2ccccc2)NC1=O) [SEQ ID NO: 22] ?
Result: 0

Query: Could you tell me which % displacement at 1 nM is on file for {DOTA-Aoc}-[dF]RCF[dW]KTF[N(2-mercaptoethyl)Gly]-NH2 (disulfide 3-9) [SEQ ID NO: 15] ?
Result: 1

Query: Could you tell me which % displacement at 1 nM is on file for {DOTA}-[dF][Orn]CF[dW]KTF[N(2-mercaptoethyl)Gly]-NH2 (disulfide 3-9) [SEQ ID NO: 21] ?
Result: 0

Query: Could you tell me which % displacement at 1 nM is on file for {CPT-Aoc}-[dF]RCF[dW]KTF[N(2-mercaptoethyl)Gly]-NH2 (disulfide 3-9) [SEQ ID NO: 27] ?
Result: 0
